# tested target: T1, PHD1_(KDM5B) Y310F mutant (UniProt Q9UGL1 306-360, Y310F)
# T1 construct: also called PHD1 Y310F; source: recombinant from modified pGEX-6p-1, site-directed mutagenesis; not shown: GST, N-terminal, cleaved
# T1 sequence (looked up): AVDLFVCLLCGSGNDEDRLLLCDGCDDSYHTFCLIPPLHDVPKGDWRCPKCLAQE
# assay: ITC; ITC-200, 20 mmol/L Tris, 150 mmol/L NaCl, 1% Triton X-100, pH 7.5, 25°C
# experimental parameters: both partners purified

binder	Kd [µM]
ARTKQTARKS (histone H3 N-terminal tail, residues 1-10; also called H3K4me0; H3K4me0 peptide; source: synthetic peptide, bought: GL Biochem Ltd. (Shanghai, China)) [unmodified H3K4 peptide (residues 1-10)]	4.3
